# protocolText: in vitro
# Type: cell-based
# assayContext: rat, NRK-49F rat kidney cells
Where a SMILES comes first, the peptide text is derived from it. The star is where a group is joined. X1 = CCCCCCCCCCCCCCCC(=O)OCC(C*)OC(=O)CCCCCCCCCCCCCCC; Palmitoyl = CCCCCCCCCCCCCCCC(=O)*
propertyMeasured: viability at 48 h

INPUT: Consider the compound CCCCCCCCCCCCCCCC(=O)N[C@@H](CSCC(COC(=O)CCCCCCCCCCCCCCC)OC(=O)CCCCCCCCCCCCCCC)C(=O)N[C@@H](CO)C(=O)N[C@@H](CCCCN)C(=O)N[C@@H](CCCCN)C(=O)N[C@@H](CCCCN)C(=O)N[C@@H](CCCCN)C(=O)O (stereo partly shown) [Standard (VacciGrade Pam3Cys) control] (Palmitoyl-C(X1)SKKKK-OH; N-terminus and C-terminus assumed) and give its recorded viability at 48 h.
OUTPUT: 95 to 100%

Data credit: patent US9969763B2
